# TARGET OR TEST SYSTEM: Cholecystokinin receptor type A (Homo sapiens, UniProt P32238)
# Sequence (P32238 whole entry): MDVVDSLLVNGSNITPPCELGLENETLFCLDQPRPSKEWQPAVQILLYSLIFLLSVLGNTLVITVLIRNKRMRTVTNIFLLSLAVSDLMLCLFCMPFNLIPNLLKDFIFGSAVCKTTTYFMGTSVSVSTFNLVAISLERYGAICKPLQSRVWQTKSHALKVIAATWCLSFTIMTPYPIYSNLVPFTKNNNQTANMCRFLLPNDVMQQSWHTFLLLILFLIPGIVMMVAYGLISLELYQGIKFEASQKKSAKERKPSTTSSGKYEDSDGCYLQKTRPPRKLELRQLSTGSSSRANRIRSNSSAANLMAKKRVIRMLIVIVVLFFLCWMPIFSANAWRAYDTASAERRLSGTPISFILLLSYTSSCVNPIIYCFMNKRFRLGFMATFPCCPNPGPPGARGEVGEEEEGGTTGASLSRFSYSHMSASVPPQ
# ASSAY TEXT: Agonist activity at human CCK1R expressed in human 1321N1 cells assessed as IP1 accumulation after 1 hr by HTRF assay
Numbered stars: 1 amine (or outer) side, 2 acyl side, 3 side chain; on linkers, the order of the positions; unused ones are H or OH. Square brackets hold non-standard residues; d marks the D form. Peptide text beside a SMILES is read from it. * marks the point of attachment. sY = N[C@@H](Cc1ccc(OS(=O)(=O)O)cc1)C(=O)O; C18 diacid = O=C(O)CCCCCCCCCCCCCCCCC(=O)*; γGlu = O=C(O)[C@H](CCC(=O)[*:2])N[*:1]; 1Nal = N[C@@H](Cc1cccc2ccccc12)C(=O)O; Hyp = O=C(O)[C@@H]1C[C@@H](O)CN1; dNMeD = CN[C@H](CC(=O)O)C(=O)O; Nle = CCCC[C@H](N)C(=O)O; AEEA = NCCOCCOCC(=O)O
Kindly supply the reported EC50 values for the records listed here.
One number for each entry, in pM.

Example entries begin here.
Item CCCC[C@H](NC(=O)[C@H](Cc1c[nH]c2ccccc12)NC(=O)CNC(=O)[C@H](CCC(=O)O)NC(=O)[C@H](Cc1ccc(OS(=O)(=O)O)cc1)NC(=O)[C@H](CC(=O)O)NC(=O)COCCOCCNC(=O)COCCOCCNC(=O)CC[C@H](NC(=O)CCCCCCCCCCCCCCCCC(=O)O)C(=O)O)C(=O)N[C@@H](CC(=O)O)C(=O)N[C@@H](Cc1ccccc1)C(N)=O ({C18 diacid-γGlu-AEEA-AEEA}-D[sY]EGW[Nle]DF-NH2) : provide EC50
166

Using known records, supply EC50 for CCCC[C@H](NC(=O)[C@H](Cc1ccc(OS(=O)(=O)O)cc1)NC(=O)[C@H](CC(=O)O)NC(=O)COCCOCCNC(=O)COCCOCCNC(=O)CC[C@H](NC(=O)CCCCCCCCCCCCCCCCC(=O)O)C(=O)O)C(=O)NCC(=O)N[C@@H](Cc1c[nH]c2ccccc12)C(=O)N[C@@H](CCCC)C(=O)N1C[C@H](O)C[C@H]1C(=O)N[C@@H](Cc1ccccc1)C(N)=O ({C18 diacid-γGlu-AEEA-AEEA}-D[sY][Nle]GW[Nle][Hyp]F-NH2)
1120

More entries:
Give EC50 for CCCC[C@H](NC(=O)[C@H](Cc1ccc(OS(=O)(=O)O)cc1)NC(=O)[C@H](CC(=O)O)NC(=O)COCCOCCNC(=O)COCCOCCNC(=O)CC[C@H](NC(=O)CCCCCCCCCCCCCCCCC(=O)O)C(=O)O)C(=O)NCC(=O)N[C@@H](Cc1c[nH]c2ccccc12)C(=O)N[C@@H](CCCC)C(=O)N(C)[C@H](CC(=O)O)C(=O)N[C@@H](Cc1cccc2ccccc12)C(N)=O ({C18 diacid-γGlu-AEEA-AEEA}-D[sY][Nle]GW[Nle][dNMeD][1Nal]-NH2)
363

====

# TARGET OR TEST SYSTEM: Cholecystokinin receptor type A (Homo sapiens, UniProt P32238)
# ASSAY TEXT: Agonist activity at human CCK1R expressed in human 1321N1 cells assessed as IP1 accumulation after 1 hr by HTRF assay
Numbered stars: 1 amine (or outer) side, 2 acyl side, 3 side chain; on linkers, the order of the positions; unused ones are H or OH. Square brackets hold non-standard residues; d marks the D form. Peptide text beside a SMILES is read from it. * marks the point of attachment. Phe(4-CH2SO3H) = N[C@@H](Cc1ccc(CS(=O)(=O)O)cc1)C(=O)O; sY = N[C@@H](Cc1ccc(OS(=O)(=O)O)cc1)C(=O)O; C18 diacid = O=C(O)CCCCCCCCCCCCCCCCC(=O)*; γGlu = O=C(O)[C@H](CCC(=O)[*:2])N[*:1]; NMeF = CN[C@@H](Cc1ccccc1)C(=O)O; NMeD = CN[C@@H](CC(=O)O)C(=O)O; dNMeD = CN[C@H](CC(=O)O)C(=O)O; Nle = CCCC[C@H](N)C(=O)O; X1 = O=C(Cc1ccc(O)cc1)*; AEEA = NCCOCCOCC(=O)O
Would you kindly list EC50 for each of these molecules?
Answers are plain numbers, in nM.

Here are 2 molecules together with their reported answers.
Give the measured EC50 for CCCC[C@H](NC(=O)Cc1ccc(O)cc1)C(=O)NCC(=O)N[C@@H](Cc1c[nH]c2ccccc12)C(=O)N[C@@H](CCCC)C(=O)N(C)[C@@H](CC(=O)O)C(=O)N[C@@H](Cc1ccccc1)C(N)=O (X1-[Nle]GW[Nle][NMeD]F-NH2)
9.12

Using known records, supply EC50 for CC(C)C[C@H](NC(=O)[C@H](Cc1ccc(OS(=O)(=O)O)cc1)NC(=O)[C@H](CC(=O)O)NC(=O)COCCOCCNC(=O)COCCOCCNC(=O)CC[C@H](NC(=O)CCCCCCCCCCCCCCCCC(=O)O)C(=O)O)C(=O)NCC(=O)N[C@@H](Cc1c[nH]c2ccccc12)C(=O)N[C@@H](C)C(=O)N(C)[C@H](CC(=O)O)C(=O)N(C)[C@@H](Cc1ccccc1)C(N)=O ({C18 diacid-γGlu-AEEA-AEEA}-D[sY]LGWA[dNMeD][NMeF]-NH2)
0.166

Others:
Provide only the value of recorded EC50 for CCCC[C@H](NC(=O)[C@H](Cc1ccc(CS(=O)(=O)O)cc1)NC(=O)[C@H](CC(=O)O)NC(=O)COCCOCCNC(=O)COCCOCCNC(=O)CC[C@H](NC(=O)CCCCCCCCCCCCCCCCC(=O)O)C(=O)O)C(=O)NCC(=O)N[C@@H](Cc1c[nH]c2ccccc12)C(=O)N[C@@H](CCCC)C(=O)N(C)[C@@H](CC(=O)O)C(=O)N(C)[C@@H](Cc1ccccc1)C(N)=O ({C18 diacid-γGlu-AEEA-AEEA}-D[Phe(4-CH2SO3H)][Nle]GW[Nle][NMeD][NMeF]-NH2)
0.107
